Each entry below carries its reported residual activity.
Test target: PRKCH (human)
Measurement protocol: radiometric filter-binding kinase assay, Kinase HotSpot
Test settings: compound 0.5 µM; ATP 10 µM
Dear colleague, please return just the value in %, with no unit written.

Field: example entries. Status: answers known.
FC(F)(F)c1ccc(/C=C/c2nc(COc3ccc(CCCCn4ccnn4)cc3)co2)cc1: 87.6
CCc1nc(-c2ccc(OC)cc2)[nH]c1-c1ccncc1: 93
COc1cc2c(Nc3ccc(Br)cc3F)ncnc2cc1OCC1CCN(C)CC1: 117
N#CCCc1ccc2c(c1)-c1[nH]c3ccc([N+](=O)[O-])cc3c1CC(=O)N2: 99.4
COc1cc2c(cc1OC)-c1[nH]nc(Nc3cccc(F)c3)c1C2: 92.1
O=C1NC(=O)c2c1c1c3ccccc3[nH]c1c1[nH]c3cc(Br)ccc3c21: 100
O=C(O)c1ccc2c3c1cccc3c(=O)n1c3ccccc3nc21: 100
COc1cc2ncnc(Nc3ccc(O)c(Br)c3)c2cc1OC: 86.3
Cn1cc(/C=C2\C(=O)Nc3ccc(S(N)(=O)=O)cc32)c2ccccc21: 102

Now look at this one.
Would you kindly share the measured residual activity for c1ccc(-c2cnc(Nc3ccc(OCCN4CCCC4)cc3)s2)cc1 ? 88.2

* * *

Each entry below carries its reported residual activity.
Test target: STK10 (human)
Measurement protocol: radiometric filter-binding kinase assay, Kinase HotSpot
Test settings: compound 0.5 µM; ATP 10 µM
Dear colleague, please return just the value in %, with no unit written.

Field: example entries. Status: answers known.
Nc1ncnc2c1cnn2-c1ccccc1: 95.4
COc1cc2ncnc(Nc3ccc(O)c(Br)c3)c2cc1OC: 14.5
Cc1cc(Nc2nc(-c3ccccc3)nc3ccccc23)n[nH]1: 56.2

Now look at this one.
Would you kindly share the measured residual activity for c1ccc(-c2cnc(Nc3ccc(OCCN4CCCC4)cc3)s2)cc1 ? 76.9

* * *

Test target: UniProt:Q9HBH9
Sequence (Q9HBH9 whole entry, looked up): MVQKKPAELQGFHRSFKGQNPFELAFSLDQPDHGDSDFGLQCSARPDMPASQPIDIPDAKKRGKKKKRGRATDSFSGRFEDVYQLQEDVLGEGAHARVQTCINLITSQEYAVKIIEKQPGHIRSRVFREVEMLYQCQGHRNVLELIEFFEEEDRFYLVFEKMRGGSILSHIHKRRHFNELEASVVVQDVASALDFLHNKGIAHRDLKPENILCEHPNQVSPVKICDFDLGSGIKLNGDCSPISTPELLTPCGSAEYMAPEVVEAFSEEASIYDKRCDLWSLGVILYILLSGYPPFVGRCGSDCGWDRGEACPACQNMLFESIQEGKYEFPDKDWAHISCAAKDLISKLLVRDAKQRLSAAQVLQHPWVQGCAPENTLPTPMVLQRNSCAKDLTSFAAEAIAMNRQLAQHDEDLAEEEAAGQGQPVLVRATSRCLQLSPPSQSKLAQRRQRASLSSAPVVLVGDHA
Measurement protocol: radiometric filter-binding kinase assay, Kinase HotSpot
Test settings: compound 0.5 µM; ATP 10 µM
Each entry below carries its reported residual activity.
Dear colleague, please return just the value in %, with no unit written.

Would you kindly share the measured residual activity for CCOc1cc2ncnc(Nc3cccc(Br)c3)c2cc1OCC ? 34.3

Would you kindly share the measured residual activity for O=C(c1ccccc1)c1ccc(N2CCOCC2)cc1O ? 90.6

Would you kindly share the measured residual activity for O=c1c2ccccc2[nH]c(=S)n1CCN1CCC(=C(c2ccc(F)cc2)c2ccc(F)cc2)CC1 ? 89.5

Would you kindly share the measured residual activity for FC(F)(F)c1ccc(/C=C/c2nc(COc3ccc(CCCCn4ccnn4)cc3)co2)cc1 ? 101

* * *

Each entry below carries its reported residual activity.
Test target: MAP4K2 (human)
Measurement protocol: radiometric filter-binding kinase assay, Kinase HotSpot
Test settings: compound 0.5 µM; ATP 10 µM
Could you write the number and then its unit?

O=C(O)c1ccc2c3c1cccc3c(=O)n1c3ccccc3nc21: 38%

Would you kindly share the measured residual activity for O=c1c(-c2ccc(F)cc2)c(-c2ccncc2)[nH]n1-c1ccc(Cl)cc1 ? 87.7%

Would you kindly share the measured residual activity for O=c1cc(N2CCOCC2)oc2c(-c3ccccc3)cccc12 ? 87.8%

Would you kindly share the measured residual activity for O=C1NC(=O)c2c1c1c3ccccc3[nH]c1c1[nH]c3cc(Br)ccc3c21 ? 74.1%
